Origin of values: ChEMBL document CHEMBL5316350

- systemName: DNA topoisomerase I (Leishmania donovani (strain BPK282A1), UniProt E9BRC0)
- test: Inhibition of recombinant Top1 in Leishmania donovani Ag83 whole cell extract assessed as relaxation of supercoiled pBluescript SK(+) DNA measured by agarose gel electrophoresis analysis
Measured IC50, listed per entry for reference.

[ask] // fetch IC50; item: `Cc1cccn2c1nc1c3ccccc3nc(-c3cccs3)c12` ; system: DNA topoisomerase I (Leishmania donovani (strain BPK282A1), UniProt E9BRC0)
[reply] 14.9 µM

[ask] // fetch IC50; item: `Cc1ccc(-c2nc3ccccc3c3nc4c(C)cccn4c23)cc1` ; system: DNA topoisomerase I (Leishmania donovani (strain BPK282A1), UniProt E9BRC0)
[reply] 15.1 µM

[ask] // fetch IC50; item: `Cc1cccn2c1nc1c3ccccc3nc(-c3ccc(Cl)cc3)c12` ; system: DNA topoisomerase I (Leishmania donovani (strain BPK282A1), UniProt E9BRC0)
[reply] 12.5 µM

[ask] // fetch IC50; item: `Cc1cccn2c1nc1c3ccccc3nc(-c3ccccc3)c12` ; system: DNA topoisomerase I (Leishmania donovani (strain BPK282A1), UniProt E9BRC0)
[reply] 12.8 µM

[ask] // fetch IC50; item: `COc1cc(-c2nc3ccccc3c3nc4ccccn4c23)cc(OC)c1OC` ; system: DNA topoisomerase I (Leishmania donovani (strain BPK282A1), UniProt E9BRC0)
[reply] 6.5 µM

[ask] // fetch IC50; item: `COc1ccc(-c2nc3ccccc3c3nc4ccccn4c23)cc1OC` ; system: DNA topoisomerase I (Leishmania donovani (strain BPK282A1), UniProt E9BRC0)
[reply] 12 µM

###

Measured IC50, listed per entry for reference.
- systemName: DNA topoisomerase I (Leishmania donovani (strain BPK282A1), UniProt E9BRC0)
- test: Inhibition of Leishmania donovani Top1 assessed as relaxation of supercoiled pBluescript SK(+) DNA measured by agarose gel electrophoresis analysis
The answer is to be given in µM; state only the numeric part.

Example entries begin here.
>  <smilesData>
Cc1ccc(-c2nc3ccccc3c3nc4c(C)cccn4c23)cc1

>  <IC50 (µM)>
7.25

$$$$
>  <smilesData>
Clc1ccc(-c2nc3ccccc3c3nc4ccccn4c23)cc1

>  <IC50 (µM)>
8.52

$$$$
>  <smilesData>
Cc1cccn2c1nc1c3ccccc3nc(-c3cccs3)c12

>  <IC50 (µM)>
7.25

$$$$
>  <smilesData>
Cc1cccn2c1nc1c3ccccc3nc(-c3ccccc3)c12

>  <IC50 (µM)>
6.75

$$$$
>  <smilesData>
Cc1cccn2c1nc1c3ccccc3nc(-c3ccc(Cl)cc3)c12

>  <IC50 (µM)>
5.5

$$$$

We now examine a further molecule.
[ask] Assign IC50 to the following record: `COc1ccc(-c2nc3ccccc3c3nc4ccccn4c23)cc1OC`
[reply] 5.25

###

- test: Cytotoxicity against BALB/c mouse macrophage assessed as cell viability measured after 48 hrs infection by propidium iodide staining analysis relative to control
- Assay type: toxicity, cell-based
- setupConditions: mouse macrophages
endpointLabel: EC50 at 48 h (µM)
The answer is to be given in µM; state only the numeric part.

>  <smilesData>
COc1cc(-c2nc3ccccc3c3nc4ccccn4c23)cc(OC)c1OC

>  <measurementUnits>
µM

>  <measurement>
50.2

$$$$

We now examine a further compound.
[ask] Assign EC50 at 48 h to the following record: `CC[C@@]1(O)C(=O)OCc2c1cc1n(c2=O)Cc2cc3ccccc3nc2-1`
[reply] 18.3

###

- test: Selectivity index ratio of EC50 for BALB/c mouse macrophage to ratio of EC50 for antileishmanial activity against Leishmania amastigotes
- Assay type: toxicity
- setupConditions: mouse macrophages, read-out: Ratio EC50
endpointLabel: selectivity ratio
# output: bare number, no unit

[ask] Assign selectivity ratio to the following record: `COc1cc(-c2nc3ccccc3c3nc4ccccn4c23)cc(OC)c1OC`
[reply] 9.25

###

- systemName: DNA topoisomerase I (Leishmania donovani (strain BPK282A1), UniProt E9BRC0)
- Sequence (E9BRC0 whole entry): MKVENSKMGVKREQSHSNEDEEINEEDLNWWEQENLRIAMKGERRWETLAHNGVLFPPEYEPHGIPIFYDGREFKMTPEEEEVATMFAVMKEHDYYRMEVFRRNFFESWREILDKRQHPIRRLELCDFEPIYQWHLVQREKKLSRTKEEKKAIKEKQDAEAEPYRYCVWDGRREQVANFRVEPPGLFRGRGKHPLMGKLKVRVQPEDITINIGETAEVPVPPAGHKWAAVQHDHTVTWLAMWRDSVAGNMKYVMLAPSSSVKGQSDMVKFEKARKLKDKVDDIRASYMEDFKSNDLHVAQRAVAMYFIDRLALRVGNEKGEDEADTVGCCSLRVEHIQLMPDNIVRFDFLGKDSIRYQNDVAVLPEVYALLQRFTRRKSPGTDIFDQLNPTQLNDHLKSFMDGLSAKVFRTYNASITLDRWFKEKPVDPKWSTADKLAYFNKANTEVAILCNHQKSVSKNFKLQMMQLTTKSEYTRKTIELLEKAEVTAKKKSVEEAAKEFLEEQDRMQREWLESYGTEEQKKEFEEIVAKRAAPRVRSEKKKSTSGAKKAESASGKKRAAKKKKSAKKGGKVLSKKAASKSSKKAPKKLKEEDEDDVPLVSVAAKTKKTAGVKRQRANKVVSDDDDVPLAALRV
- test: Inhibition of recombinant Top1 in Antimony resistant Leishmania donovani BHU575 whole cell extract assessed as relaxation of supercoiled pBluescript SK(+) DNA measured by agarose gel electrophoresis analysis
endpointLabel: IC50 (µM)
The answer is to be given in µM; state only the numeric part.

[ask] Assign IC50 to the following record: `COc1cc(-c2nc3ccccc3c3nc4ccccn4c23)cc(OC)c1OC`
[reply] 8.75
